Where do the numbers come from? From paper PMC4901321.

Target: PPARγ LBD (Homo sapiens, UniProt P37231)
Construct: PPARγ LBD was expressed as N-terminal His-tagged proteins using a pET28 vector; His tag (N, cleaved yes); made in house; host or cells: E. coli BL21 DE3
Sequence (P37231 238-503 limits assumed): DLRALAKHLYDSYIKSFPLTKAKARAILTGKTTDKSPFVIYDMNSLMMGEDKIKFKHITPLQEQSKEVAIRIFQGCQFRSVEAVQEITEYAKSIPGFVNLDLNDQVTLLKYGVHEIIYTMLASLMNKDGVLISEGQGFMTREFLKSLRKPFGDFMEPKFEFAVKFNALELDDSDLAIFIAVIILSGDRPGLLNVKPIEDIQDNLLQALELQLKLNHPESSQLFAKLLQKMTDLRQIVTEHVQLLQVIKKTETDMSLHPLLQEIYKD
Assay: Isothermal titration calorimetry
Assay type: binding
Conditions: ITC, 22 °C, one-site model
assay_metric: pKd
Quick note: pKd values are minus log10 of concentrations in mol/L.

Quickly give me recorded pKd for CCCCC[C@H](O)/C=C/C=C\CCCCCCCC(=O)O [13-(S)-HODE]
5.03
